The reader will find reported MICantibiotic [MICcombo] values listed item by item below.
# Tested on: E. coli ATCC 25922
# Format: cell-based, Escherichia coli
# ASSAY CONTEXT: niclosamide in combination with the UTBLP
Non-standard residues stand in square brackets, D forms with d. Residues, ends and D or L forms follow the SMILES beside them. *: point of attachment. Lys(Me3) = C[N+](C)(C)CCCC[C@H](N)C(=O)O; Octanoyl = CCCCCCCC(=O)*
The reply should be a number in µg/mL, with the unit left off.

CCCCCCCC(=O)N[C@@H](CCCCN)C(=O)NCCCN(CCCNC(=O)[C@H](CCCCN)NC(=O)CCCCCCC)CC(=O)N[C@@H](CCCCN)C(N)=O :: 0.5

Now turn to the next molecule.
Lab entry: E. coli ATCC 25922 assay, molecule CCCCCCCC(=O)NCCCC[C@H](NC(=O)CCCCCCC)C(=O)N[C@@H](CCCC[N+](C)(C)C)C(=O)N[C@@H](CCCC[N+](C)(C)C)C(=O)N[C@@H](CCCC[N+](C)(C)C)C(=O)N[C@@H](CCCC[N+](C)(C)C)C(N)=O [UTBLP 8] (Octanoyl-K(Octanoyl)[Lys(Me3)][Lys(Me3)][Lys(Me3)][Lys(Me3)]-NH2) , MICantibiotic [MICcombo] = 8

###

# Test system: P. aeruginosa PAO1
# Format: cell-based, Pseudomonas aeruginosa
# ASSAY CONTEXT: UTBLP alone, plate with novobiocin
Non-standard residues stand in square brackets, D forms with d. Residues, ends and D or L forms follow the SMILES beside them. *: point of attachment. Lys(Me3) = C[N+](C)(C)CCCC[C@H](N)C(=O)O; Lys(Me2) = CN(C)CCCC[C@H](N)C(=O)O; Lys(Me) = CNCCCC[C@H](N)C(=O)O; Octanoyl = CCCCCCCC(=O)*
The reader will find reported MICUTBLP values listed item by item below.

For reference, reported MICUTBLP for CCCCCCCC(=O)NCCCC[C@H](NC(=O)CCCCCCC)C(=O)N[C@@H](CCCCNC)C(=O)N[C@@H](CCCCNC)C(=O)N[C@@H](CCCCNC)C(=O)N[C@@H](CCCCNC)C(N)=O [UTBLP 6] (Octanoyl-K(Octanoyl)[Lys(Me)][Lys(Me)][Lys(Me)][Lys(Me)]-NH2) stands at > 128 µg/mL

For reference, reported MICUTBLP for CCCCCCCC(=O)NCCCC[C@H](NC(=O)CCCCCCC)C(=O)N[C@@H](CCCCN(C)C)C(=O)N[C@@H](CCCCN(C)C)C(=O)N[C@@H](CCCCN(C)C)C(=O)N[C@@H](CCCCN(C)C)C(N)=O [UTBLP 7] (Octanoyl-K(Octanoyl)[Lys(Me2)][Lys(Me2)][Lys(Me2)][Lys(Me2)]-NH2) stands at > 128 µg/mL

For reference, reported MICUTBLP for CCCCCCCC(=O)N[C@@H](CCCCNC)C(=O)NCCCN(CCCNC(=O)[C@H](CCCCNC)NC(=O)CCCCCCC)CC(=O)N[C@@H](CCCCNC)C(N)=O [UTBLP 2] stands at > 128 µg/mL

For reference, reported MICUTBLP for CCCCCCCC(=O)N[C@@H](CCCCN(C)C)C(=O)NCCCN(CCCNC(=O)[C@H](CCCCN(C)C)NC(=O)CCCCCCC)CC(=O)N[C@@H](CCCCN(C)C)C(N)=O [UTBLP 3] stands at > 128 µg/mL

For reference, reported MICUTBLP for CCCCCCCC(=O)NCCCC[C@H](NC(=O)CCCCCCC)C(=O)N[C@@H](CCCC[N+](C)(C)C)C(=O)N[C@@H](CCCC[N+](C)(C)C)C(=O)N[C@@H](CCCC[N+](C)(C)C)C(=O)N[C@@H](CCCC[N+](C)(C)C)C(N)=O [UTBLP 8] (Octanoyl-K(Octanoyl)[Lys(Me3)][Lys(Me3)][Lys(Me3)][Lys(Me3)]-NH2) stands at > 128 µg/mL

For reference, reported MICUTBLP for CCCCCCCC(=O)N[C@@H](CCCCN)C(=O)NCCCN(CCCNC(=O)[C@H](CCCCN)NC(=O)CCCCCCC)CC(=O)N[C@@H](CCCCN)C(N)=O [UTBLP 1] stands at > 128 µg/mL

###

# Tested on: P. aeruginosa PAO1
# Assay type: cell-based, Pseudomonas aeruginosa
# ASSAY CONTEXT: UTBLP in combination with niclosamide
Non-standard residues stand in square brackets, D forms with d. Residues, ends and D or L forms follow the SMILES beside them. *: point of attachment. Lys(Me2) = CN(C)CCCC[C@H](N)C(=O)O; Lys(Me) = CNCCCC[C@H](N)C(=O)O; Octanoyl = CCCCCCCC(=O)*
The reader will find reported MICUTBLP [MICcombo] values listed item by item below.
The reply should be a number in µg/mL, with the unit left off.

CCCCCCCC(=O)N[C@@H](CCCCN)C(=O)NCCCN(CCCNC(=O)[C@H](CCCCN)NC(=O)CCCCCCC)CC(=O)N[C@@H](CCCCN)C(N)=O :: 0.25

For reference, reported MICUTBLP [MICcombo] for CCCCCCCC(=O)NCCCC[C@H](NC(=O)CCCCCCC)C(=O)N[C@@H](CCCCNC)C(=O)N[C@@H](CCCCNC)C(=O)N[C@@H](CCCCNC)C(=O)N[C@@H](CCCCNC)C(N)=O [UTBLP 6] (Octanoyl-K(Octanoyl)[Lys(Me)][Lys(Me)][Lys(Me)][Lys(Me)]-NH2) stands at 16

For reference, reported MICUTBLP [MICcombo] for CCCCCCCC(=O)NCCCC[C@H](NC(=O)CCCCCCC)C(=O)N[C@@H](CCCCN(C)C)C(=O)N[C@@H](CCCCN(C)C)C(=O)N[C@@H](CCCCN(C)C)C(=O)N[C@@H](CCCCN(C)C)C(N)=O [UTBLP 7] (Octanoyl-K(Octanoyl)[Lys(Me2)][Lys(Me2)][Lys(Me2)][Lys(Me2)]-NH2) stands at 0.25

###

# Test system: S. aureus ATCC 29213
# Assay type: cell-based, Staphylococcus aureus
# ASSAY CONTEXT: UTBLP in combination with chloramphenicol
Non-standard residues stand in square brackets, D forms with d. Residues, ends and D or L forms follow the SMILES beside them. *: point of attachment. Lys(Me3) = C[N+](C)(C)CCCC[C@H](N)C(=O)O; Lys(Me2) = CN(C)CCCC[C@H](N)C(=O)O; Lys(Me) = CNCCCC[C@H](N)C(=O)O; Octanoyl = CCCCCCCC(=O)*
The reader will find reported MICUTBLP [MICcombo] values listed item by item below.
The reply should be a number in µg/mL, with the unit left off.

Past entries and their recorded results:
CCCCCCCC(=O)NCCCC[C@H](NC(=O)CCCCCCC)C(=O)N[C@@H](CCCCN(C)C)C(=O)N[C@@H](CCCCN(C)C)C(=O)N[C@@H](CCCCN(C)C)C(=O)N[C@@H](CCCCN(C)C)C(N)=O [UTBLP 7] (Octanoyl-K(Octanoyl)[Lys(Me2)][Lys(Me2)][Lys(Me2)][Lys(Me2)]-NH2) :: 0.25
CCCCCCCC(=O)NCCCC[C@H](NC(=O)CCCCCCC)C(=O)N[C@@H](CCCC[N+](C)(C)C)C(=O)N[C@@H](CCCC[N+](C)(C)C)C(=O)N[C@@H](CCCC[N+](C)(C)C)C(=O)N[C@@H](CCCC[N+](C)(C)C)C(N)=O [UTBLP 8] (Octanoyl-K(Octanoyl)[Lys(Me3)][Lys(Me3)][Lys(Me3)][Lys(Me3)]-NH2) :: 0.25

Now turn to the next compound.
For reference, reported MICUTBLP [MICcombo] for CCCCCCCC(=O)NCCCC[C@H](NC(=O)CCCCCCC)C(=O)N[C@@H](CCCCNC)C(=O)N[C@@H](CCCCNC)C(=O)N[C@@H](CCCCNC)C(=O)N[C@@H](CCCCNC)C(N)=O [UTBLP 6] (Octanoyl-K(Octanoyl)[Lys(Me)][Lys(Me)][Lys(Me)][Lys(Me)]-NH2) stands at 16

###

# Test system: E. coli 94474
# Type: cell-based, Escherichia coli
# ASSAY CONTEXT: UTBLP in combination with novobiocin
# Description: The synergy of the UTBLPs with various antibiotics was assessed using checkerboard assay as previously described. […] Growth in the form of turbidity was confirmed using an EMax Plus microplate reader (Molecular Devices, Union City, CA, USA) at 590 nm. […] The FIC value is calculated by dividing the MIC of the agents in combination by the MIC of the agent alone. […]
Non-standard residues stand in square brackets, D forms with d. Residues, ends and D or L forms follow the SMILES beside them. *: point of attachment. Lys(Me2) = CN(C)CCCC[C@H](N)C(=O)O; Octanoyl = CCCCCCCC(=O)*
The reader will find reported MICUTBLP [MICcombo] values listed item by item below.
The reply should be a number in µg/mL, with the unit left off.

CCCCCCCC(=O)N[C@@H](CCCCN)C(=O)NCCCN(CCCNC(=O)[C@H](CCCCN)NC(=O)CCCCCCC)CC(=O)N[C@@H](CCCCN)C(N)=O [UTBLP 1] :: 8

Now turn to the next compound.
For reference, reported MICUTBLP [MICcombo] for CCCCCCCC(=O)NCCCC[C@H](NC(=O)CCCCCCC)C(=O)N[C@@H](CCCCN(C)C)C(=O)N[C@@H](CCCCN(C)C)C(=O)N[C@@H](CCCCN(C)C)C(=O)N[C@@H](CCCCN(C)C)C(N)=O [UTBLP 7] (Octanoyl-K(Octanoyl)[Lys(Me2)][Lys(Me2)][Lys(Me2)][Lys(Me2)]-NH2) stands at 8
